FYI, the data here is from ChEMBL document CHEMBL5058577.

# Test system: Fibroblast
# experimental details: Multiplex assay against human fibroblast
# Format: toxicity, cell-based
# condition description: 12 h, 1 µM, compound concentration 1 uM, replicate 2
Listed here: items and their measured Population Membrane Permeable-Phenotype (%).
The reply should be a number in %, with the unit left off.

Example molecules with recorded Population Membrane Permeable-Phenotype (%):
> print(dat)
                                   molecule  val
1  COc1ccc2c(c1)C(C(=O)N(Cc1ccc(N(C)C)cc1)c1ccc(C(C)C)cc1)CCC2.Cl (centres undefined)    5
2  COc1cc(NC(=O)CCN2CCC(OC(=O)Nc3ccccc3-c3ccccc3)CC2)c(Cl)cc1CNC[C@H](O)c1ccc(O)c2[nH]c(=O)ccc12    3
3  Cc1ccccc1C(=O)Nc1ccc(C(=O)N2CCCC(N(C)C)c3ccccc32)cc1.Cl (centres undefined)   10
4  O=C(NCCO)c1cccc(-c2cc(Nc3ccc(OC(F)(F)F)cc3)ncn2)c1   10
5  COc1c(C)cc(NC(=O)c2nn(Cc3ccc(F)cc3)c3c2CN(C(=O)c2ccc[nH]2)C[C@]3(C)C(N)=O)cc1C    6
6  CN1CCN2c3ncccc3Cc3ccccc3C2C1 (centres undefined)    4
7  CCOc1c2c(c(OCC)c3ncccc13)CN(c1ccc(CS(=O)(=O)NC(=O)Cc3ccccc3OC)cc1C)C2=O    8
8  Cc1ccc(C(C)(O)c2nc3ccccc3s2)c(C)c1 (centres undefined)    3

q: Looking for the measured Population Membrane Permeable-Phenotype (%) of `Cc1ccc(/C(=C\CN2CCCC2)c2ccccn2)cc1` , can you help?
a: 1

###

Listed here: items and their measured Population Apoptotic (%).
# Test system: U2OS
# experimental details: Multiplex assay against U2OS
# Format: toxicity, cell-based
# condition description: human, 48 h, 10 µM, compound concentration 10 uM, replicate 2

Example molecules with recorded Population Apoptotic (%):
molecule	Population Apoptotic (%)
CCNC1(C(N)=O)CCN(c2ncnc3c2nc(-c2ccccc2Cl)n3-c2ccc(Cl)cc2)CC1	80%
COc1c(C)cc(NC(=O)c2nn(Cc3ccc(F)cc3)c3c2CN(C(=O)c2ccc[nH]2)C[C@]3(C)C(N)=O)cc1C	87%
Cc1ccccc1C(=O)Nc1ccc(C(=O)N2CCCC(N(C)C)c3ccccc32)cc1.Cl (configuration not stated)	84%

q: Looking for the measured Population Apoptotic (%) of Cc1ccc(C(C)(O)c2nc3ccccc3s2)c(C)c1 (configuration not stated) , can you help?
a: 85%

q: Looking for the measured Population Apoptotic (%) of `CN1CCN(c2nc3cc(C(F)(F)F)ccc3n3cccc23)CC1.O=C(O)/C=C\C(=O)O.O=C(O)/C=C\C(=O)O` , can you help?
a: 81%

q: Looking for the measured Population Apoptotic (%) of CSc1ccccc1N1CCN(CCCCCC(=O)NC2CCCc3ccccc32)CC1.Cl (configuration not stated) , can you help?
a: 100%

q: Looking for the measured Population Apoptotic (%) of `N#Cc1c(N)nc(SCc2csc(-c3ccc(Cl)cc3)n2)c(C#N)c1-c1ccc(OCCO)cc1` , can you help?
a: 66%

q: Looking for the measured Population Apoptotic (%) of `Cc1nc2ccc(Oc3ccc(F)cc3)cc2c(=O)n1C[C@H]1CCCN(C(C)C)C1.Cl` , can you help?
a: 88%

q: Looking for the measured Population Apoptotic (%) of `Cc1ccc(/C(=C\CN2CCCC2)c2ccccn2)cc1` , can you help?
a: 89%
